testSystem: Recombinant human KIF18A (1-467His-tagged) protein (Homo sapiens)
Construct: Recombinant human KIF18A (1-467His-tagged) protein; His
experimentalProtocol: KIF18A enzyme assay (microtubule-stimulated ATPase activity, ADP-Glo)
conditionParameters: 30 nM KIF18A, 75 μM ATP, 30 μg/mL pig microtubules; read-out: Inhibitory activity against KIF18A IC50
valueKind: IC50

1. O=C(Nc1ccc(OCF)c(N2CCC(F)(F)CC2)c1)c1cnc(NS(=O)(=O)CCO)cc1N1CCC2(CC1)CC2: ≤ 0.1 µM

Now examine the next entry.
Inquiry: Query IC50 on Recombinant human KIF18A (1-467His-tagged) protein (Homo sapiens) for O=C(Nc1cnc(S(=O)(=O)NCCO)cc1N1CCC2(CC1)CC2)c1ccc([N+](=O)[O-])c(N2CCC3(CC3)C2)c1
Reply text: 0.1 to 0.5 µM

* * *

testSystem: Recombinant human KIF18A (1-467His-tagged) protein (Homo sapiens)
Construct: Recombinant human KIF18A (1-467His-tagged) protein; His
experimentalProtocol: KIF18A enzyme assay (microtubule-stimulated ATPase activity, ADP-Glo)
conditionParameters: 30 nM KIF18A, 75 μM ATP, 30 μg/mL pig microtubules; read-out: Inhibitory activity against KIF18A IC50
valueKind: IC50

// below: answered compounds
1) O=C(Nc1ccc([N+](=O)[O-])c(OCCC(F)(F)F)n1)c1ccc(NS(=O)(=O)CCO)cc1N1CCC2(CC1)CC2: ≤ 100 nM
2) O=C(Nc1ccc(S(=O)(=O)NCCO)cc1N1CCC2(CC1)CC2)c1ccc([N+](=O)[O-])c(N2CCC(F)CC2)n1: 100 to 500 nM
3) O=C(Nc1ccc([N+](=O)[O-])c(OC2CCC2)n1)c1cnc(S(=O)(=O)NCCO)cc1N1CCC2(CC1)CC2: ≤ 100 nM
4) C[C@@H](CO)NS(=O)(=O)c1ccc(NC(=O)c2ccc(OCF)c(N3CCC(F)(F)CC3)n2)c(N2CCC3(CC2)CC3)c1: 100 to 500 nM
5) O=C(Nc1ccc(OCF)c(N2CC(F)(F)C2)c1)c1cnc(S(=O)(=O)NCCO)cc1N1CCC2(CC1)CC2: ≤ 100 nM

Inquiry: Item: COc1ccc(NC(=O)c2cnc(S(=O)(=O)N[C@@H](C)CO)cc2N2CCC3(CC2)CC3)nc1N1CCC(F)(F)CC1 Test system: Recombinant human KIF18A (1-467His-tagged) protein (Homo sapiens) Read-out: IC50 Value: ?
Reply text: ≤ 100 nM

Inquiry: Could you share what IC50 was measured for CSc1ccc(NC(=O)c2ccc(NS(=O)(=O)CCO)cc2N2CCC3(CC2)CC3)nc1N1CCOCC1 , tested on Recombinant human KIF18A (1-467His-tagged) protein (Homo sapiens)?
Reply text: ≤ 100 nM

* * *

testSystem: Recombinant human KIF18A (1-467His-tagged) protein (Homo sapiens, UniProt Q8NI77)
Construct: Recombinant human KIF18A (1-467His-tagged) protein; His
Sequence (Q8NI77 1-467): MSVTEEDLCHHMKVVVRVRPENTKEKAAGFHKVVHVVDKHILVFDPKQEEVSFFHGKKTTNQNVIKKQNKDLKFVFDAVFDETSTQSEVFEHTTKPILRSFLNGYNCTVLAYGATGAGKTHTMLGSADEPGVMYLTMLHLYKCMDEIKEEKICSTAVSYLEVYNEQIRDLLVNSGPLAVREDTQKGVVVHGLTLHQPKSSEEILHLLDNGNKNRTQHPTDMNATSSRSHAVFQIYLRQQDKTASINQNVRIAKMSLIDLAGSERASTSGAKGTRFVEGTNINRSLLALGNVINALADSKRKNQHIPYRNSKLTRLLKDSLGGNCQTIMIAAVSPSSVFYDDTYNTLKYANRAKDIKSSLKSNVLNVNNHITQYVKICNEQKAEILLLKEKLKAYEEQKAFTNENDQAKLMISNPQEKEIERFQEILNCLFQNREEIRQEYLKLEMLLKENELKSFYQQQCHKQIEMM
Sequence (P02550 whole entry partner): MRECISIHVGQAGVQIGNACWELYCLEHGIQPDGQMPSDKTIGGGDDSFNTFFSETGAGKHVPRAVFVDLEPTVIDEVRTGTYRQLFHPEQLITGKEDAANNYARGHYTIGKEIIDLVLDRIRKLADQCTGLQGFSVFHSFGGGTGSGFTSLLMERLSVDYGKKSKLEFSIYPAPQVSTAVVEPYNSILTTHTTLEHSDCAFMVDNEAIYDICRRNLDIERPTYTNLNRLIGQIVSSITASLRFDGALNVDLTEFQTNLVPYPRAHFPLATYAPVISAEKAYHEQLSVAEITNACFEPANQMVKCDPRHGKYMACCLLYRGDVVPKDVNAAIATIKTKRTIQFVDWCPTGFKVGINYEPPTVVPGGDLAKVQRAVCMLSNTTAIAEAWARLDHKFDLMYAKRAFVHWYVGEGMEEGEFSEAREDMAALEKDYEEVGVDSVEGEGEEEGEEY
Sequence (P02554 whole entry partner): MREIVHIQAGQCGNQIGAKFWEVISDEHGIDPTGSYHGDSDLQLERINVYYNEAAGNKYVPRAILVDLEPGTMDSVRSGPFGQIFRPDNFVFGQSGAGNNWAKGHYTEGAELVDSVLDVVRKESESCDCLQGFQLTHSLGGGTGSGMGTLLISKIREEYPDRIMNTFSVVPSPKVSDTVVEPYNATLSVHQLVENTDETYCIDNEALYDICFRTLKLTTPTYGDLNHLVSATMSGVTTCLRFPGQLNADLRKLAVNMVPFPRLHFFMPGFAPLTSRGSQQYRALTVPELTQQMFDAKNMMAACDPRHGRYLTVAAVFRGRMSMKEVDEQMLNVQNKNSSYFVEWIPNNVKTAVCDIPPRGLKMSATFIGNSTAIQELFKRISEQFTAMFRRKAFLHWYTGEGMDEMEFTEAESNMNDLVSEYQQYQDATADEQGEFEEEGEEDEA
experimentalProtocol: KIF18A enzyme assay (microtubule-stimulated ATPase activity, ADP-Glo)
conditionParameters: 30 nM KIF18A, 75 μM ATP, 30 μg/mL pig microtubules; read-out: Inhibitory activity against KIF18A IC50
pIC50: −log10 of the molar value.
valueKind: pIC50

Reference set (5 entries):
1. C[C@H](CO)NS(=O)(=O)c1ccc(C(=O)Nc2ccc(OCF)c(N3CCC(F)(F)CC3)n2)c(N2CCC3(CC2)CC3)c1 [Compound 446]: ≥ 7.00
2. O=C(Nc1ccc(OCF)c(OC2CCC2)c1)c1ccc(NS(=O)(=O)CCO)cc1N1CCC2(CC1)CC2 [Compound 391]: ≥ 7.00
3. C[C@@H](CO)NS(=O)(=O)c1ccc(C(=O)Nc2ccc([N+](=O)[O-])c(N3CCC(F)(F)CC3)n2)c(N2CCC3(CC2)CC3)c1 [Compound 93]: ≥ 7.00
4. C[C@H](CO)NS(=O)(=O)c1cc(N2CCC3(CC2)CC3)c(C(=O)Nc2ccc(OCF)c(N3CCC(F)(F)CC3)c2)cn1 [Compound 478]: ≥ 7.00
5. CSc1ccc(NC(=O)c2cnc(NS(=O)(=O)CCO)cc2N2CCC3(CC2)CC3)nc1NC(C)(C)CO [Compound 635]: ≥ 7.00

Inquiry: Given C[C@@H]1CN(c2cc(C(=O)Nc3ccc(S(=O)(=O)NCCO)cc3N3CCC4(CC3)CC4)ccc2[N+](=O)[O-])CCO1 [Compound 50] , state its recorded pIC50.
Reply text: 6.30 to 7.00

Inquiry: Field request: pIC50 | item: C[C@@H]1CN(c2nc(NC(=O)c3cnc(NS(=O)(=O)CCO)cc3N3CCC4(CC3)CC4)ccc2[N+](=O)[O-])CCO1 [Compound 130]
Reply text: ≥ 7.00

Inquiry: Requested field: pIC50. Item: COc1ccc(NC(=O)c2ccc(NS(=O)(=O)CCO)cc2N2CCC3(CC2)CC3)nc1N1CCC(C)(F)C1 (stereo not shown) [Compound 264]
Reply text: ≥ 7.00

Inquiry: Reported pIC50 for CC(C)(CO)Nc1nc(NC(=O)c2cnc(NS(=O)(=O)CCO)cc2N2CCC3(CC2)CC3)ccc1[N+](=O)[O-] [Compound 139] : what is it?
Reply text: ≥ 7.00

Inquiry: Given the entry CC(C)(CO)Nc1cc(NC(=O)c2ccc(NS(=O)(=O)CCO)cc2N2CCC3(CC2)CC3)ccc1OCF [Compound 395] , report its measured pIC50.
Reply text: ≥ 7.00

Inquiry: // query pIC50 value for entry CC1(F)CCN(c2cc(NC(=O)c3cnc(NS(=O)(=O)CCO)cc3N3CCC4(CC3)CC4)ccc2[N+](=O)[O-])C1 (stereo not shown) [Compound 104]
Reply text: ≥ 7.00

Inquiry: What value of pIC50 has been reported for the following compound? C[C@H](CO)NS(=O)(=O)c1cc(N2CCC3(CC2)CC3)c(NC(=O)c2ccc([N+](=O)[O-])c(N3CCC(F)(F)CC3)n2)cn1 [Compound 254]
Reply text: 6.30 to 7.00

Inquiry: If you can, please state the reported pIC50 value of CC(C)(CO)Nc1nc(C(=O)Nc2cnc(NS(=O)(=O)CCO)cc2N2CCC3(CC2)CC3)ccc1[N+](=O)[O-] [Compound 235] .
Reply text: ≥ 7.00

* * *

System: HT-29 cells
experimentalProtocol: In vitro anti-proliferative activity against HT-29 cells (intracellular ATP content, 72 h)
Type: cell-based
conditionParameters: Homo sapiens, 72 h after dosing
pIC50: −log10 of the molar value.
valueKind: pIC50

Worked cases, pIC50 given:
1. O=C(Nc1ccc([N+](=O)[O-])c(N2CCC(F)(F)CC2)n1)c1ccc(NS(=O)(=O)CCO)cc1N1CCC2(CC1)CC2 [Compound 65]: 7.26
2. COc1ccc(NC(=O)c2ccc(NS(=O)(=O)CCO)cc2N2CCC(C)(C(F)(F)F)CC2)nc1N1CCC(F)(F)CC1 [Compound 833]: 7.28

[I] CSc1ccc(NC(=O)c2ccc(NS(=O)(=O)CCO)cc2N2CCC3(CC2)CC3)nc1N1CCC(F)(F)CC1 [Compound 593]
[II] COc1ccc(NC(=O)c2ccc(NS(=O)(=O)CCO)cc2N2CCC3(CC2)CC3)nc1N1CCC2(CC2)C1 [Compound 262]
Inquiry: # returns the entry with the larger pIC50; inputs I and II Please reply using the label of the selected record.
Reply text: I
(I: 7.01, II: 6.62)

* * *

testSystem: Recombinant human KIF18A (1-467His-tagged) protein (Homo sapiens)
Construct: Recombinant human KIF18A (1-467His-tagged) protein; His
experimentalProtocol: KIF18A enzyme assay (microtubule-stimulated ATPase activity, ADP-Glo)
conditionParameters: 30 nM KIF18A, 75 μM ATP, 30 μg/mL pig microtubules; read-out: Inhibitory activity against KIF18A IC50
pIC50: −log10 of the molar value.
Measured pIC50 by item

Some compounds with known pIC50 results, for comparison:
1) C[C@H]1CN(c2cc(NC(=O)c3cnc(NS(=O)(=O)CCO)cc3N3CCC4(CC3)CC4)ccc2OCF)CCO1: ≥ 7.00
2) C[C@H](CO)NS(=O)(=O)c1ccc(NC(=O)c2ccc([N+](=O)[O-])c(N3CCO[C@H](C)C3)n2)c(N2CCC3(CC2)CC3)c1: 6.30 to 7.00

Could you now consider this next compound?
Inquiry: Short answer please: pIC50, Recombinant human KIF18A (1-467His-tagged) protein (Homo sapiens), entry CC1(F)CCN(c2nc(C(=O)Nc3ccc(S(=O)(=O)NCCO)cc3N3CCC4(CC3)CC4)ccc2OCF)C1 (stereo not drawn)
Reply text: 6.30 to 7.00

* * *

testSystem: Recombinant human KIF18A (1-467His-tagged) protein (Homo sapiens)
Construct: Recombinant human KIF18A (1-467His-tagged) protein; His
experimentalProtocol: KIF18A enzyme assay (microtubule-stimulated ATPase activity, ADP-Glo)
conditionParameters: 30 nM KIF18A, 75 μM ATP, 30 μg/mL pig microtubules; read-out: Inhibitory activity against KIF18A IC50
Each entry below carries its reported IC50.

Example cases with answers are listed next.
1) CC(C)(CO)Nc1cc(NC(=O)c2ccc(NS(=O)(=O)CCO)cc2N2CCC3(CC2)CC3)ccc1[N+](=O)[O-]: ≤ 0.1 µM
2) COc1ccc(C(=O)Nc2ccc(NS(=O)(=O)CCO)cc2N2CCC3(CC2)CC3)nc1NC(C)(C)CO: ≤ 0.1 µM
3) C[C@H](CO)NS(=O)(=O)c1ccc(NC(=O)c2ccc(OCF)c(N3CCO[C@H](C)C3)n2)c(N2CCC3(CC2)CC3)c1: 0.1 to 0.5 µM
4) C[C@H]1CN(c2nc(NC(=O)c3ccc(S(=O)(=O)NCCO)cc3N3CCC4(CC3)CC4)ccc2[N+](=O)[O-])CCO1: ≤ 0.1 µM
5) C[C@H](CO)NS(=O)(=O)c1ccc(C(=O)Nc2ccc([N+](=O)[O-])c(N3CCC(F)(F)CC3)n2)c(N2CCC3(CC2)CC3)c1: ≤ 0.1 µM
6) O=C(Nc1cnc(S(=O)(=O)NCCO)cc1N1CCC2(CC1)CC2)c1ccc([N+](=O)[O-])c(N2CCOCC2)c1: 0.1 to 0.5 µM

Inquiry: Looking for the measured IC50 of CSc1ccc(NC(=O)c2ccc(NS(=O)(=O)CCO)cc2N2CCC3(CC2)CC3)nc1N1CCC(F)CC1 , can you help?
Reply text: ≤ 0.1 µM
